Test Target: Sodium-dependent serotonin transporter (Homo sapiens, UniProt P31645)
Sequence (P31645 whole entry): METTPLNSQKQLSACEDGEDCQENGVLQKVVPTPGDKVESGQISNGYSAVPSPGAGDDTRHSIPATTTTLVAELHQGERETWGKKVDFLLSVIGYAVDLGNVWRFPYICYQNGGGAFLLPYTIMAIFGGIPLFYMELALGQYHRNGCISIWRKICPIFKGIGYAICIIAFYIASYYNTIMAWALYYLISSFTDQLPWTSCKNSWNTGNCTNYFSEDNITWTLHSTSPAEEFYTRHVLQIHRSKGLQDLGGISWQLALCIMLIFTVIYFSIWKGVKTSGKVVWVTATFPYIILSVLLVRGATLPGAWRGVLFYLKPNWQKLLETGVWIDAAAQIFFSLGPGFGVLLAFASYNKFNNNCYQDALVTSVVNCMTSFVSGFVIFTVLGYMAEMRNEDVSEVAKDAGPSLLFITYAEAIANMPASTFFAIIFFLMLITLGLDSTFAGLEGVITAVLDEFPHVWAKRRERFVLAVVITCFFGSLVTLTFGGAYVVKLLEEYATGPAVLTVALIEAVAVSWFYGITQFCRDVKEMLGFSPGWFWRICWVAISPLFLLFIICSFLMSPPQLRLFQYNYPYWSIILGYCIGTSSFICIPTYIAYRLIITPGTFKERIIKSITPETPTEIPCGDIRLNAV
Protocol Text: Inhibition of [3H]5-HT uptake at human SERT expressed in HEK293 cells after 10 mins by scintillation counting

- Compound: "CSc1ccc(CC(C)N)cc1 (stereo unspecified)"
  Ki, nM: 450

###

Test Target: Sodium-dependent serotonin transporter (Rattus norvegicus)
Sequence (P31652 whole entry): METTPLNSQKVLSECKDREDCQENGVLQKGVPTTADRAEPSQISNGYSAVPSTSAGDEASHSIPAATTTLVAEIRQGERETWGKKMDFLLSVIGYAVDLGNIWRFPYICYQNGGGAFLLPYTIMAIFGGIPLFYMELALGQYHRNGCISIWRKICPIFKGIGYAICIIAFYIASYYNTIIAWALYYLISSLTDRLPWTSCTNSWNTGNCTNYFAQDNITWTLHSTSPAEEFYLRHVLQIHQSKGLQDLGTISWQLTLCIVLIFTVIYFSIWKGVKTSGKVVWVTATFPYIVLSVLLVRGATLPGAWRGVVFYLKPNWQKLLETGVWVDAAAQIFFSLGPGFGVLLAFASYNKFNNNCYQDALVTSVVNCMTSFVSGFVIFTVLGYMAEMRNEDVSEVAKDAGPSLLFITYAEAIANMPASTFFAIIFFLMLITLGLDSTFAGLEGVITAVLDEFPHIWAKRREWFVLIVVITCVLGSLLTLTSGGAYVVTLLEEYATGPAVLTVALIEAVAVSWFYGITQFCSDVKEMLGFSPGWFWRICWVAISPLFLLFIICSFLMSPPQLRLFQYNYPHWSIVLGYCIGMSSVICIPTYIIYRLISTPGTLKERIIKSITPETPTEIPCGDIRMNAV
Protocol Text: Inhibition of [3H]5-HT uptake at SERT in rat brain synaptosome
Type: tissue-based
pIC50: −log10 of the molar value.

- Compound: "CC(N)Cc1ccc(Cl)cc1 (stereo unspecified)"
  pIC50: 6.74

###

Test Target: Sodium-dependent serotonin transporter (Homo sapiens, UniProt P31645)
Protocol Text: Inhibition of [3H]5-HT uptake at SERT
Recorded measurements of IC50, one per entry
Property: IC50 (nM)

- Molecule: "CSc1ccc(CC(C)N)cc1 (configuration not stated) [4-METHYLTHIOAMPHETAMINE]"
  Property: "IC50"
  Result Value: 74
- Molecule: "CNC(C)Cc1ccc2c(c1)OCO2 (configuration not stated) [MIDOMAFETAMINE]"
  Property: "IC50"
  Result Value: 425
